In this section, each of the compounds is paired with its reported pEC50.
- target.of.assay: N48K Clarin-1 (Homo sapiens, UniProt P58418, N48K)
- assay.notes: Restoration of expression of N48K Clarin-1, 24 hour incubation (high content imaging of HA-tagged N48K Clarin-1)
- experimental.conditions: HEK293-Clarin-1 N48K-HA D9 cell line, 24 hr incubation with compound; read-out: IC50 (the source's name)
pEC50: −log10 of the molar value.

Here are 5 compounds together with their reported answers.
>>> df
                                   compound                           target_of_assay  property_name  experimental_result
0  Cn1nc(-c2ccccc2)c2c(Cl)c(-c3cccnc3)nnc21 [IIId]  N48K Clarin-1 (Homo sapiens, UniProt P58418, N48K)          pEC50               ≥ 5.70
1  Clc1c(-c2ccccc2)nnc2c1c(-c1ccccc1)nn2C1CCOCC1 [IIe]  N48K Clarin-1 (Homo sapiens, UniProt P58418, N48K)          pEC50               ≥ 5.70
2  Cc1nn(CC(=O)N2CCCC2)c2nnc(-c3ccccc3)c(Cl)c12 [Iw]  N48K Clarin-1 (Homo sapiens, UniProt P58418, N48K)          pEC50         5.30 to 5.70
3  Cc1nn(C)c2nnc(-c3ccccc3)c(Cl)c12 [Compound 22]  N48K Clarin-1 (Homo sapiens, UniProt P58418, N48K)          pEC50               ≥ 5.70
4  Cc1nn(C)c2nnc(-c3ccccc3)c(F)c12 [Compound 24]  N48K Clarin-1 (Homo sapiens, UniProt P58418, N48K)          pEC50               ≥ 5.70

pEC50 recorded for this compound, Cc1nn(C)c2nnc(-c3cccc(F)c3)c(Cl)c12 [Compound 25] , is ≥ 5.70

pEC50 recorded for this compound, CN1CCN(CCn2nc(-c3ccc(C(F)(F)F)nc3)c3c(Cl)c(-c4ccccc4)nnc32)CC1 [Ih] , is 5.30 to 5.70

pEC50 recorded for this compound, Cc1nn(CCO)c2nnc(-c3ccccc3)c(Cl)c12 [Ihh] , is ≥ 5.70

pEC50 recorded for this compound, CN1CCN(CCn2nc(I)c3c(Cl)c(-c4ccccc4)nnc32)CC1 [Ia] , is ≥ 5.70

pEC50 recorded for this compound, Clc1c(-c2ccccc2)nnc2[nH]nc(C3CC3)c12 [Idd] , is ≥ 5.70

---

In this section, each of the compounds is paired with its reported pEC50.
- target.of.assay: N48K Clarin-1 (Homo sapiens, UniProt P58418, N48K)
- Construct: expressed in transfected cells
- Sequence (P58418 1-232 N48K): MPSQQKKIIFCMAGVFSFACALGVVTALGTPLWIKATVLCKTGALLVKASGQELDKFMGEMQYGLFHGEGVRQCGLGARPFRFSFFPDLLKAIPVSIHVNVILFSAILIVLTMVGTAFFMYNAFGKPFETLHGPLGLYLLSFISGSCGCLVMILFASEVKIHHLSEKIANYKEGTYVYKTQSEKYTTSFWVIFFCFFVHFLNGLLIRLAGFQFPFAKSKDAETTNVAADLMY
- assay.notes: Restoration of expression of N48K Clarin-1, 24 hour incubation (high content imaging of HA-tagged N48K Clarin-1)
- Type: cell-based
- experimental.conditions: HEK293-Clarin-1 N48K-HA D9 cell line, 24 hr incubation with compound; read-out: IC50 (the source's name)
pEC50: −log10 of the molar value.

                            molecule_smiles  experimental_result
0  Cc1nn(CCN2CCN(C)CC2)c2nnc(-c3ccccc3)c(Cl)c12               ≥ 5.70
1  Cn1cc(Cn2nc(-c3ccccc3)c3c(Cl)c(-c4ccccc4)nnc32)cn1               ≥ 5.70
2  CN1CCN(CCn2ncc3c(Cl)c(-c4ccccc4)nnc32)CC1         4.68 to 5.30

pEC50 recorded for this compound, `Cn1nc(C2CCCC2)c2c(Cl)c(-c3ccccc3)nnc21` , is 5.30 to 5.70

pEC50 recorded for this compound, `O=C(Cn1nc(C2CC2)c2c(Cl)c(-c3ccccc3)nnc21)N1CCCC1` , is 5.30 to 5.70

pEC50 recorded for this compound, `O=C(Cn1nc(C(F)(F)F)c2c(Cl)c(-c3ccccc3)nnc21)N1CCCC1` , is 5.30 to 5.70

pEC50 recorded for this compound, `Cn1nc(-c2cccnc2)c2c(Cl)c(-c3ccccc3)nnc21` , is ≥ 5.70

pEC50 recorded for this compound, `O=C1CCCN1CCn1nc(-c2ccccc2)c2c(Cl)c(-c3ccccc3)nnc21` , is ≥ 5.70

pEC50 recorded for this compound, `Cc1n[nH]c2nnc(-c3ccccc3)c(Cl)c12` , is 5.30 to 5.70

pEC50 recorded for this compound, `COC/C=C/c1nn(CCN2CCN(C)CC2)c2nnc(-c3ccccc3)c(Cl)c12` , is ≥ 5.70
